- TEST DETAILS: physchem
- APPLIED CONDITIONS: organic solvent or mixture, thermodynamic from solid, Solubility in DMSO, Lab 4

{"SMILES NOTATION": "CC(C)(c1ccc(O)cc1)c1ccc(O)cc1", "solubility": "> 50 mg/mL"}

* * *

- TEST DETAILS: physchem
- APPLIED CONDITIONS: aqueous buffer, kinetic from dmso stock, Solubility in medium, Lab 3, assay medium, Lab 3
MEASURE NAME: solubility (µg/mL)

{"COMPOUND": "C[C@]1(O)CC[C@H]2[C@@H]3CCC4=CC(=O)CC[C@]4(C)[C@@]3(F)[C@@H](O)C[C@@]21C [Fluoxymesterone]", "MEASURE NAME": "solubility", "ASSAY RESULT": 5}
{"COMPOUND": "CCN(CC)C(=S)SSC(=S)N(CC)CC [Disulfiram]", "MEASURE NAME": "solubility", "ASSAY RESULT": 15}
{"COMPOUND": "C[C@]12Cc3c[nH]nc3C[C@@H]1CC[C@@H]1[C@@H]2CC[C@@]2(C)[C@H]1CC[C@]2(C)O [Stanozolol]", "MEASURE NAME": "solubility", "ASSAY RESULT": 2}
{"COMPOUND": "CCCCOC(=O)c1ccccc1C(=O)OCc1ccccc1 [Benzylbutyl phthalate]", "MEASURE NAME": "solubility", "ASSAY RESULT": 15}
{"COMPOUND": "C=CC1(C)OC(=O)N(c2cc(Cl)cc(Cl)c2)C1=O (centres unmarked) [Vinclozolin]", "MEASURE NAME": "solubility", "ASSAY RESULT": 15}
